Molecular target: T1, interleukin-23 receptor (IL-23R) (UniProt Q5VWK5 24-629, limits assumed)
T1 sequence (looked up): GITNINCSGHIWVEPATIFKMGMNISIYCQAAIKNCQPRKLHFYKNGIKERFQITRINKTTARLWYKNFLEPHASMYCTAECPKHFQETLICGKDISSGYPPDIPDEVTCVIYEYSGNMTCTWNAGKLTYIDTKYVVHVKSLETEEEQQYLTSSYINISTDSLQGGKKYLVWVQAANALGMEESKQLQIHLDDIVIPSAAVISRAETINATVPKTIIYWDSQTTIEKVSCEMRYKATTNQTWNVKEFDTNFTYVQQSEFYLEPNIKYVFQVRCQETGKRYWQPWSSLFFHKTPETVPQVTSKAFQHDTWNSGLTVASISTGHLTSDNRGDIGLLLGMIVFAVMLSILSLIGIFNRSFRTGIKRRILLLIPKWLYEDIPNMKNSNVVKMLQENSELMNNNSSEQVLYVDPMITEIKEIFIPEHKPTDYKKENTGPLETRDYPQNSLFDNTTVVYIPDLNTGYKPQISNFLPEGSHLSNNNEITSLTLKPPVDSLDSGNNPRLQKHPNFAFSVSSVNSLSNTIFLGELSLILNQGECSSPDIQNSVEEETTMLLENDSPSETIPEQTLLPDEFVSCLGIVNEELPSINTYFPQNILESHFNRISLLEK
Assay: cell-based or functional assay
Starred links: 1 amine or outer side, 2 acyl side, 3 side chain; linkers in the order of their positions; H or OH if unused. Positions of bridges follow the written chain, without caps; N, C: chain ends. Non-standard residues stand in square brackets, D forms with d. Groups on a side chain read outwards from the residue. Primed or numbered codes have the meaning given here. 6Br2Nal = 2-amino-3-(6-bromonaphthalen-2-yl)propanoic acid, O=C([C@H](Cc1ccc2cc(Br)ccc2c1)N[*:1])[*:2]; Trp(7-(3-AcNH-Ph)) = CC(=O)Nc1cccc(-c2cccc3c(C[C@H](N)C(=O)O)c[nH]c23)c1; 2Nal(6-OH) = N[C@@H](Cc1ccc2cc(O)ccc2c1)C(=O)O; Trp(7-Me) = Cc1cccc2c(C[C@H](N)C(=O)O)c[nH]c12; γGlu = O=C(O)[C@H](CCC(=O)[*:2])N[*:1]; AEF = NCCOc1ccc(C[C@H](N)C(=O)O)cc1; 3Pal = N[C@@H](Cc1cccnc1)C(=O)O; Pen = CC(C)(S)[C@H](N)C(=O)O; PEG2′ = not defined here; Thp = NC1(C(=O)O)CCOCC1; Sar = CNCC(=O)O
quantity_name: PBMC pSTAT3 IC50

Example cases with answers are listed next.
binder | PBMC pSTAT3 IC50
Ac-[dR][Pen]NT[Trp(7-Me)]K(Ac)[Pen][AEF][2Nal(6-OH)][Thp]EN[3Pal][Sar]-NH2 (disulfide 2-7 (inferred)) [SEQ ID NO: 442] | < 0.01 nM
Ac-[dR][Pen]NT[Trp(7-(3-AcNH-Ph))]K(Ac)[Pen][AEF][2Nal(6-OH)][Thp]EN[3Pal][Sar]-NH2 (disulfide 2-7 (inferred)) [SEQ ID NO: 287] | < 0.1 nM
Ac-[Pen]NT[Trp(7-Me)]K(Ac)[Pen][AEF][2Nal(6-OH)][Thp]K([PEG2′-PEG2′-γGlu-C18OH])N[3Pal][Sar]-NH2 (disulfide 1-6 (inferred)) [SEQ ID NO: 273] | < 0.1 nM

// next entry
Prompt: // query PBMC pSTAT3 IC50 value for entry Ac-[dR][Pen]NT[Trp(7-Me)]K(Ac)[Pen][AEF][6Br2Nal][Thp]EN[Thp]-NH2 (disulfide 2-7 (inferred)) [SEQ ID NO: 444]
Response: > 1 nM
